This section presents binders with their documented pIC50 values.
biological target: Recombinant hBcl-2 protein (human); assay: DELFIA displacement assay
pIC50: −log10 of the molar value.

Binder	pIC50
Ac-CATQLRRFGDKLN-NH2 [hNOXAs (Ac-…-NH2)]	< 6.00
Ac-CATQLRRFGDKLNFRQKLLN-NH2 [hNOXA (Ac-…-NH2)]	< 6.00

Recorded values, source paper PMC5320539.
